The reported measurements were obtained from paper PMC10258794.

Tested on: E. coli W3110
Details: supplementary CSV; ranges of Table 1 given as one number
Non-standard residues stand in square brackets, D forms with d. Residues, ends and D or L forms follow the SMILES beside them.
As shown below, each of these compounds has a reported MIC E. coli W3110 value.

Example compounds with recorded MIC E. coli W3110:
1. CC(C)C[C@H](NC(=O)[C@H](CC(C)C)NC(=O)[C@@H](CC(C)C)NC(=O)[C@H](CCCCN)NC(=O)[C@@H](CC(C)C)NC(=O)[C@@H](CC(C)C)NC(=O)[C@H](CCCCN)NC(=O)[C@@H](CC(C)C)NC(=O)[C@@H](CC(C)C)NC(=O)[C@H](CCCCN)NC(=O)[C@@H](N)CCCCN)C(N)=O    12 µg/mL
2. CC(C)C[C@@H](NC(=O)[C@@H](CC(C)C)NC(=O)[C@@H](CC(C)C)NC(=O)[C@@H](CCCCN)NC(=O)[C@@H](CC(C)C)NC(=O)[C@@H](CC(C)C)NC(=O)[C@@H](CCCCN)NC(=O)[C@@H](CC(C)C)NC(=O)[C@@H](CC(C)C)NC(=O)[C@@H](CCCCN)NC(=O)[C@H](N)CCCCN)C(N)=O    3 µg/mL
3. CC(C)C[C@H](NC(=O)[C@H](CCCCN)NC(=O)[C@H](N)CCCCN)C(=O)N[C@@H](CC(C)C)C(=O)N[C@H](CCCCN)C(=O)N[C@H](CC(C)C)C(=O)N[C@H](CC(C)C)C(=O)N[C@@H](CCCCN)C(=O)N[C@@H](CC(C)C)C(=O)N[C@@H](CC(C)C)C(=O)N[C@H](CC(C)C)C(N)=O    3 µg/mL
4. CC(C)C[C@H](NC(=O)[C@H](CC(C)C)NC(=O)[C@H](CC(C)C)NC(=O)[C@@H](CCCNC(=N)N)NC(=O)[C@H](CC(C)C)NC(=O)[C@H](CC(C)C)NC(=O)[C@@H](CCCNC(=N)N)NC(=O)[C@H](CC(C)C)NC(=O)[C@H](CC(C)C)NC(=O)[C@@H](CCCNC(=N)N)NC(=O)[C@H](N)CCCNC(=N)N)C(N)=O [HP33, rrLLrLLrLLL] (H-[dR][dR]LL[dR]LL[dR]LLL-NH2)    6 µg/mL
5. CC(C)C[C@@H](NC(=O)[C@@H](CC(C)C)NC(=O)[C@@H](CC(C)C)NC(=O)[C@H](CCCCN)NC(=O)[C@@H](CC(C)C)NC(=O)[C@@H](CC(C)C)NC(=O)[C@H](CCCCN)NC(=O)[C@@H](CC(C)C)NC(=O)[C@@H](CC(C)C)NC(=O)[C@H](CCCCN)NC(=O)[C@@H](N)CCCCN)C(N)=O    1 µg/mL

# ---- query compound ----
Prompt: Return MIC E. coli W3110 measured with E. coli W3110 given this compound: `CC(C)C[C@H](NC(=O)[C@H](CC(C)C)NC(=O)[C@H](CC(C)C)NC(=O)[C@H](CCCCN)NC(=O)[C@H](CC(C)C)NC(=O)[C@H](CC(C)C)NC(=O)[C@H](CCCCN)NC(=O)[C@@H](CC(C)C)NC(=O)[C@H](CC(C)C)NC(=O)[C@@H](CCCCN)NC(=O)[C@@H](N)CCCCN)C(N)=O`
Completion: 3 µg/mL
